Test system: EW-18 (Ewing's Sarcoma)
Test: Bliss excess, mean over the matrix (fraction); higher = more synergy
Each entry below carries its reported Bliss excess.

Compound	Bliss excess
C[C@@H]1COCCN1c1cc(C2([S@](C)(=N)=O)CC2)nc(-c2ccnc3[nH]ccc23)n1 [AZD6738] + O=C(c1cc(Cc2n[nH]c(=O)c3ccccc23)ccc1F)N1CCN(C(=O)C2CC2)CC1 [Olaparib] (first compound max 10 µM, 7x7, partner max 10 µM)	0.0292
CN(CCO)CC[C@H](CSc1ccccc1)Nc1ccc(S(=O)(=O)NC(=O)c2ccc(N3CCC([C@@H](O)c4ccccc4-c4ccc(Cl)cc4)CC3)cc2)cc1S(=O)(=O)C(F)(F)F [AZD4320] + C[C@@H](Nc1cc(F)cc(F)c1)c1cc(C(=O)N(C)C)cc2c(=O)cc(N3CCOCC3)oc12 [AZD8186] (first compound max 1 µM, 7x7, partner max 3 µM)	0.0747

---

Tested on: NCI-H2347 (Lung Adenocarcinoma)
Test: Bliss excess, mean over the matrix (fraction); higher = more synergy
Each entry below carries its reported Bliss excess.

Compound	Bliss excess
COc1nnc2ccc(N3CCC(c4ccc(OCCN5CCN(C)C(=O)[C@H]5C)cc4)CC3)nn12 [AZD5153] + C[C@@H]1COCCN1C2=NC(=NC(=C2)C3(CC3)[S@](=N)(=O)C)C4=C5C=CNC5=NC=C4 [AZD6738] (first compound max 1 µM, 7x7, partner max 10 µM)	0.0599
CC1(C)CCC(CN2CCN(c3ccc(C(=O)NS(=O)(=O)c4ccc(NCC5CCOCC5)c([N+](=O)[O-])c4)c(Oc4cnc5[nH]ccc5c4)c3)CC2)=C(c2ccc(Cl)cc2)C1 [Venetoclax] + CN(C)CCCOc1ccc(-c2ccc3ncc4c(c3c2)n(C2CCOCC2)c(=O)n4C)cn1 [AZD0156] (first compound max 1 µM, 7x7, partner max 1 µM)	-0.0488

---

Test system: HC-1 (Other Blood Carcinomas)
Test: combination Emax (second highest fraction inhibited in the dose matrix, 72 h); higher = more inhibition; extreme values may be limits of the assay

Compound	combination Emax
CN(CCO)CC[C@H](CSc1ccccc1)Nc1ccc(S(=O)(=O)NC(=O)c2ccc(N3CCC([C@@H](O)c4ccccc4-c4ccc(Cl)cc4)CC3)cc2)cc1S(=O)(=O)C(F)(F)F [AZD4320] + CN(C)CCCOc1ccc(-c2ccc3ncc4c(c3c2)n(C2CCOCC2)c(=O)n4C)cn1 [AZD0156] (first compound max 1 µM, 7x7, partner max 1 µM)	0.424
CC(=O)c1c(C)c2cnc(Nc3ccc(N4CCNCC4)cn3)nc2n(C2CCCC2)c1=O [Palbociclib] + Cc1c2c(nn1C)CSCc1cc(n(C)n1)CSc1cc(c3ccccc3c1)OCCCc1c(C(=O)O)n(C)c3c-2c(Cl)ccc13 [AZD5991] (first compound max 10 µM, 7x7, partner max 1 µM)	0.654

---

Tested on: BV-173 (Chronic Myelogenous Leukemia)
Test: combination Emax (second highest fraction inhibited in the dose matrix, 72 h); higher = more inhibition; extreme values may be limits of the assay
Endpoint Label: combination Emax

Compound	Measured On	Experimental Value
C[C@@H](c1ccc2nccn2c1)n1nnc2ncc(-c3cnn(C)c3)nc21 [Savolitinib] + Cc1c2c(nn1C)CSCc1cc(n(C)n1)CSc1cc(c3ccccc3c1)OCCCc1c(C(=O)O)n(C)c3c-2c(Cl)ccc13 [AZD5991] (first compound max 1 µM, 7x7, partner max 1 µM)	BV-173 (Chronic Myelogenous Leukemia)	0.704
CN(CCO)CC[C@H](CSc1ccccc1)Nc1ccc(S(=O)(=O)NC(=O)c2ccc(N3CCC([C@@H](O)c4ccccc4-c4ccc(Cl)cc4)CC3)cc2)cc1S(=O)(=O)C(F)(F)F [AZD4320] + CN(C)CCCOc1ccc(-c2ccc3ncc4c(c3c2)n(C2CCOCC2)c(=O)n4C)cn1 [AZD0156] (first compound max 1 µM, 7x7, partner max 1 µM)	BV-173 (Chronic Myelogenous Leukemia)	0.95

---

Tested on: ASH-3 (Thyroid Gland Carcinoma)
Test: Bliss excess, mean over the matrix (fraction); higher = more synergy

Molecule	Bliss excess
CC(=O)c1c(C)c2cnc(Nc3ccc(N4CCNCC4)cn3)nc2n(C2CCCC2)c1=O [Palbociclib] + Cc1c2c(nn1C)CSCc1cc(n(C)n1)CSc1cc(c3ccccc3c1)OCCCc1c(C(=O)O)n(C)c3c-2c(Cl)ccc13 [AZD5991] (first compound max 10 µM, 7x7, partner max 1 µM)	-0.0324
CN(CCO)CC[C@H](CSc1ccccc1)Nc1ccc(S(=O)(=O)NC(=O)c2ccc(N3CCC([C@@H](O)c4ccccc4-c4ccc(Cl)cc4)CC3)cc2)cc1S(=O)(=O)C(F)(F)F [AZD4320] + CN(C)CCCOc1ccc(-c2ccc3ncc4c(c3c2)n(C2CCOCC2)c(=O)n4C)cn1 [AZD0156] (first compound max 1 µM, 7x7, partner max 1 µM)	0.0341
COc1nnc2ccc(N3CCC(c4ccc(OCCN5CCN(C)C(=O)[C@H]5C)cc4)CC3)nn12 [AZD5153] + Cn1cnc2c(F)c(Nc3ccc(Br)cc3Cl)c(C(=O)NOCCO)cc21 [Selumetinib] (first compound max 1 µM, 7x7, partner max 10 µM)	-0.0338
CN(CCO)CC[C@H](CSc1ccccc1)Nc1ccc(S(=O)(=O)NC(=O)c2ccc(N3CCC([C@@H](O)c4ccccc4-c4ccc(Cl)cc4)CC3)cc2)cc1S(=O)(=O)C(F)(F)F [AZD4320] + C[C@@H]1COCCN1C2=NC(=NC(=C2)C3(CC3)[S@](=N)(=O)C)C4=C5C=CNC5=NC=C4 [AZD6738] (first compound max 1 µM, 7x7, partner max 10 µM)	-0.0011
CCN(CCO)CCCOc1ccc2c(Nc3cc(CC(=O)Nc4cccc(F)c4)[nH]n3)ncnc2c1 [AZD2811] + C[C@@H]1COCCN1C2=NC(=NC(=C2)C3(CC3)[S@](=N)(=O)C)C4=C5C=CNC5=NC=C4 [AZD6738] (first compound max 1 µM, 7x7, partner max 10 µM)	-0.0367
COc1cccc(OCCCN)c1-c1cc(Nc2cnc(C#N)cn2)n[nH]1 [Prexasertib] + O=C(c1cc(Cc2n[nH]c(=O)c3ccccc23)ccc1F)N1CCN(C(=O)C2CC2)CC1 [Olaparib] (first compound max 1 µM, 7x7, partner max 10 µM)	0.027
NC1(C(=O)N[C@@H](CCO)c2ccc(Cl)cc2)CCN(c2ncnc3[nH]ccc23)CC1 [Capivasertib] + Cn1cnc2c(F)c(Nc3ccc(Br)cc3Cl)c(C(=O)NOCCO)cc21 [Selumetinib] (first compound max 10 µM, 7x7, partner max 10 µM)	0.064
CC1(C)CCC(CN2CCN(c3ccc(C(=O)NS(=O)(=O)c4ccc(NCC5CCOCC5)c([N+](=O)[O-])c4)c(Oc4cnc5[nH]ccc5c4)c3)CC2)=C(c2ccc(Cl)cc2)C1 [Venetoclax] + Cn1cnc2c(F)c(Nc3ccc(Br)cc3Cl)c(C(=O)NOCCO)cc21 [Selumetinib] (first compound max 1 µM, 7x7, partner max 3 µM)	-0.0074
Cc1c2c(nn1C)CSCc1cc(n(C)n1)CSc1cc(c3ccccc3c1)OCCCc1c(C(=O)O)n(C)c3c-2c(Cl)ccc13 [AZD5991] + C[C@@H](Nc1cc(F)cc(F)c1)c1cc(C(=O)N(C)C)cc2c(=O)cc(N3CCOCC3)oc12 [AZD8186] (first compound max 1 µM, 7x7, partner max 3 µM)	0.0027
CC(=O)c1c(C)c2cnc(Nc3ccc(N4CCNCC4)cn3)nc2n(C2CCCC2)c1=O [Palbociclib] + CC1(C)CCC(CN2CCN(c3ccc(C(=O)NS(=O)(=O)c4ccc(NCC5CCOCC5)c([N+](=O)[O-])c4)c(Oc4cnc5[nH]ccc5c4)c3)CC2)=C(c2ccc(Cl)cc2)C1 [Venetoclax] (first compound max 10 µM, 7x7, partner max 1 µM)	-0.0086
CCc1c2c(nc3ccc(O)cc13)-c1cc3c(c(=O)n1C2)COC(=O)[C@]3(O)CC [SN-38] + O=C(c1cc(Cc2n[nH]c(=O)c3ccccc23)ccc1F)N1CCN(C(=O)C2CC2)CC1 [Olaparib] (first compound max 0.3 µM, 7x7, partner max 10 µM)	0.074
COc1nnc2ccc(N3CCC(c4ccc(OCCN5CCN(C)C(=O)[C@H]5C)cc4)CC3)nn12 [AZD5153] + Cc1c2c(nn1C)CSCc1cc(n(C)n1)CSc1cc(c3ccccc3c1)OCCCc1c(C(=O)O)n(C)c3c-2c(Cl)ccc13 [AZD5991] (first compound max 1 µM, 7x7, partner max 1 µM)	-0.114
NC1(C(=O)N[C@@H](CCO)c2ccc(Cl)cc2)CCN(c2ncnc3[nH]ccc23)CC1 [Capivasertib] + CC(C)n1c(=O)n(C)c2cnc3cc(F)c(-c4ccc(OCCCN5CCCCC5)nc4)cc3c21 [AZD1390] (first compound max 10 µM, 7x7, partner max 0.3 µM)	-0.0478

---

Tested on: SNU-C1 (Colorectal Carcinoma)
Test: combination Emax (second highest fraction inhibited in the dose matrix, 72 h); higher = more inhibition; extreme values may be limits of the assay
Decide using combination Emax: a value greater than or equal to 0.4 is true, a smaller one is false.

Compound	Label
CC(=O)c1c(C)c2cnc(Nc3ccc(N4CCNCC4)cn3)nc2n(C2CCCC2)c1=O [Palbociclib] + Cn1cnc2c(F)c(Nc3ccc(Br)cc3Cl)c(C(=O)NOCCO)cc21 [Selumetinib] (first compound max 10 µM, 7x7, partner max 10 µM)	true
O=C(c1cc(Cc2n[nH]c(=O)c3ccccc23)ccc1F)N1CCN(C(=O)C2CC2)CC1 [Olaparib] + CN(CC[C@H](CSC1=CC=CC=C1)NC2=C(C=C(C=C2)S(=O)(=O)NC(=O)C3=CC=C(C=C3)N4CCC(CC4)[C@H](C5=CC=CC=C5C6=CC=C(C=C6)Cl)O)S(=O)(=O)C(F)(F)F)CCO [AZD4320] (first compound max 10 µM, 7x7, partner max 1 µM)	true
Cc1cc2ncnn2cc1Nc1ncc2c(n1)n(C1CCOCC1)c(=O)n2C [AZD7648] + COc1cc([C@@H]2c3cc4c(cc3[C@@H](O[C@@H]3O[C@@H]5CO[C@@H](C)O[C@H]5[C@H](O)[C@H]3O)[C@H]3COC(=O)[C@H]23)OCO4)cc(OC)c1O [Etoposide] (first compound max 10 µM, 7x7, partner max 10 µM)	false
Cc1cc2ncnn2cc1Nc1ncc2c(n1)n(C1CCOCC1)c(=O)n2C [AZD7648] + C[C@@H]1COCCN1C2=NC(=NC(=C2)C3(CC3)[S@](=N)(=O)C)C4=C5C=CNC5=NC=C4 [AZD6738] (first compound max 10 µM, 7x7, partner max 10 µM)	false
CC1(C)CCC(CN2CCN(c3ccc(C(=O)NS(=O)(=O)c4ccc(NCC5CCOCC5)c([N+](=O)[O-])c4)c(Oc4cnc5[nH]ccc5c4)c3)CC2)=C(c2ccc(Cl)cc2)C1 [Venetoclax] + C1CN(CCC1(C(=O)N[C@@H](CCO)C2=CC=C(C=C2)Cl)N)C3=NC=NC4=C3C=CN4 [Capivasertib] (first compound max 1 µM, 7x7, partner max 3 µM)	true
C[C@@H](Nc1cc(F)cc(F)c1)c1cc(C(=O)N(C)C)cc2c(=O)cc(N3CCOCC3)oc12 [AZD8186] + CC(=O)c1c(C)c2cnc(Nc3ccc(N4CCNCC4)cn3)nc2n(C2CCCC2)c1=O [Palbociclib] (first compound max 10 µM, 7x7, partner max 10 µM)	false
CC1(C)CCC(CN2CCN(c3ccc(C(=O)NS(=O)(=O)c4ccc(NCC5CCOCC5)c([N+](=O)[O-])c4)c(Oc4cnc5[nH]ccc5c4)c3)CC2)=C(c2ccc(Cl)cc2)C1 [Venetoclax] + C[C@@H]1COCCN1C2=NC(=NC(=C2)C3(CC3)[S@](=N)(=O)C)C4=C5C=CNC5=NC=C4 [AZD6738] (first compound max 1 µM, 7x7, partner max 10 µM)	false
